For each of the compounds below, state its z-score.
experiment: growth of efflux-deficient E. coli DRC39 – strain DRC39, OD650, 24 h, E. coli filamentation inducers, primary screen (AID 1178);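 further: growth measured as culture turbidity by optical density at 650 nm; test concentration not given here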; details: E. coli DRC39 acrAB, higher = more signal, called active from +8 up or from −8 down
The source made the active and inactive calls.

compound: CN1C(=O)C2C(C1=O)C1C=C(CCCO)C2C(C2CC2)N1Cc1cccc(OC(F)(F)F)c1 (configuration not stated)
value_observed: 0.492 (inactive)

Your task in this section: give z-score for each listed record.
1. CC(C)C(=C=CC[C@H](O)c1ccccc1OCCO)C[C@H](O)COCc1ccccc1
2. C[N+](C)(C)CCCC[C@@H]1NC(=O)[C@H]2C[C@@H](C(=O)NCCCCCNC(=O)CS)[C@@H](c3cccc(OCCO)c3)N2C1=O
3. O=C(NCc1ccc(F)cc1)[C@H]1C[C@H]2C(=O)N3CCC[C@H]3C(=O)N2[C@H]1c1ccc(O)cc1
4. COC(=O)C(CC#Cc1ccc2c(c1)[C@]1(C(=O)N2)[C@H](c2ccc(OCCO)cc2)N2[C@H](c3ccccc3)[C@H](c3ccccc3)OC(=O)[C@H]2[C@@H]1C(=O)N1CCCCCCC1)C(=O)OC
5. [N-]=[N+]=NCc1ccccc1[C@@H]1OC(c2ccc(OCCCO)cc2)=N[C@]1(Cc1ccccc1N=[N+]=[N-])C(=O)NCC(O)CO (some centres not stated)
6. COc1ccc([Si](C)(C)[C@H]2[C@H](CCO)O[C@@]3(C(=O)N(Cc4cccc(N(C=O)c5ccccc5)c4)c4ccccc43)[C@@H]2C)cc1

output:
-0.145 (inactive)
-0.133 (inactive)
0.639 (inactive)
-0.8 (inactive)
-0.0582 (inactive)
1.61 (inactive)

----------
For each of the compounds below, state its composite z-score.
tested on: Sonic hedgehog protein (Shh); experiment: Sonic hedgehog microarray binding compounds – biochemical, small-molecule microarray, 635/667 nm fluorescence, primary screen (AID 1151); details: 635 nm fluorescence, higher = more signal;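 further: Shh protein binding to compounds spotted on small-molecule microarray slides; score combines spot fluorescence intensity with signal-to-noise across triplicate slides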
Numbers only.

compound: C=CCOC(=O)[C@@H]1[C@H]2C(=O)O[C@H](c3ccccc3)[C@H](c3ccccc3)N2[C@H](c2ccc(OCCOC(=O)[C@H]3C[C@H]4C(=O)NCC(=O)N4[C@H]3c3cccc(OCCO)c3)cc2)[C@@]12C(=O)Nc1ccc(I)cc12
reported_endpoint: composite z-score
value_observed: 1.88
--
compound: O=C1[C@@H]2[C@@H](CC(COc3ccccc3)=C([C@H](O)CCc3ccccc3)[C@@H]2CO)C(=O)N1Cc1ccccc1
reported_endpoint: composite z-score
value_observed: 0.801
--
compound: COCCOC(=O)N1C(=O)[C@@]2(c3cc(C#CCCO)ccc31)[C@H](c1ccccc1OCCO)N1[C@H](c3ccccc3)[C@H](c3ccccc3)OC(=O)[C@H]1[C@@H]2C(N)=O
reported_endpoint: composite z-score
value_observed: 1.97
--
compound: O=C1NC(=O)C2C1C=CC(C(O)c1ccc([N+](=O)[O-])cc1)N2Nc1ccccn1 (configuration not stated)
reported_endpoint: composite z-score
value_observed: -0.371

Your task in this section: give composite z-score for each listed record.
1. O=C1[C@H]2C=C(I)[C@H](C[C@@H]2c2ccccc2)[C@@]12CO2
2. COc1ccc(NN2C(C(O)c3ccc(I)cc3)C=CC3C(=O)N(C4CCCCC4)C(=O)C32)cc1 (configuration not stated)
3. COC(=O)[C@@]1(Cc2ccccc2)[C@H]2c3cc(C(=O)N(C)C)n(Cc4ccc(S(C)(=O)=O)cc4)c3C[C@H]2CN1C(=O)c1ccccc1

output:
1: 0.147; 2: 1.3; 3: -0.68

----------
test: probe aNOTCH3 binding on compound microarray – biochemical, small-molecule microarray, 635/667 nm fluorescence, primary screen (AID 1120); details: higher = more signal;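 further: probe is a biotin-tagged antibody raised against NOTCH3 rather than NOTCH3 protein; score merges spot fluorescence near 667 nm with spot signal to noise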
reported_endpoint: composite z-score
Numbers only.

Consider the worked cases shown below.
compound: COCCOC(=O)N1C(=O)[C@@]2(c3cc(C#CCC(C(=O)OC)C(=O)OC)ccc31)[C@H](c1ccc(O)cc1)N1[C@H](c3ccccc3)[C@H](c3ccccc3)OC(=O)[C@H]1[C@@H]2C(=O)Nc1nc2ccccc2s1
composite z-score: 0.146
--
compound: C[C@@H]1ON(c2ccccc2)[C@H](c2ccccc2)[C@H]1C(=O)O
composite z-score: -0.0971
--
compound: CC(C)=CCCC(C)=CC(O)C1C=CC2C(=O)NC(=O)C2N1Nc1ccc(Cl)cc1Cl (configuration not stated)
composite z-score: 0.0952

Your task in this section: give composite z-score for each listed record.
1. Cc1ccc(S[C@]2(C(=O)NCCCN(C)C)CC(=O)N(Cc3ccccc3C(F)(F)F)[C@@H]2c2ccc(CO)cc2I)cc1
2. COc1ccc([Si](C)(C)[C@H]2[C@H](CCO)O[C@@]3(C(=O)N(Cc4ccc(NC(=O)[C@H](C)O)cc4)c4ccccc43)[C@@H]2C)cc1
3. C=CC[C@@]1(C(=O)OC)N=C(c2ccc(OCCCO)cc2)O[C@@H]1c1ccccc1N=[N+]=[N-]
4. CN(C)CCCC[C@@H]1NC(=O)[C@H]2C[C@@H](C(=O)O)[C@@H](c3ccc(O)cc3)N2C1=O

output:
1: -0.422; 2: 0.0643; 3: 0.477; 4: 1.65

----------
target: Follistatin-related protein 3 (Homo sapiens) (UniProt O95633); assay: compounds binding follistatin-related protein 3 – biochemical, small-molecule microarray, 635 nm fluorescence, primary screen (AID 1105); details: FSTL3 binding, higher = more signal;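 further: score merges emission near 667 nm and signal to noise per printed spot across three slides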
Sequence (O95633 whole entry, looked up): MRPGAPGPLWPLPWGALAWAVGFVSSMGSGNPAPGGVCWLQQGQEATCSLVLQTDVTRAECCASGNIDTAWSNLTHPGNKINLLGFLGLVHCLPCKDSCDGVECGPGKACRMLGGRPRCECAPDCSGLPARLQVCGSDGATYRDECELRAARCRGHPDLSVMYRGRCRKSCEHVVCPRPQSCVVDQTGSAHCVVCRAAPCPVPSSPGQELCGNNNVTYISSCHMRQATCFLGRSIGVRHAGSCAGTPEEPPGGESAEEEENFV
reported_endpoint: composite z-score
Answers are plain numbers.

compound: CC(=O)OCC1C2CC[C@H]3C(OCc4ccc(F)cc4C(F)(F)F)OC[C@]4(C)[C@H]3C2=C(CN4C(=O)OC(C)(C)C)[C@H](C)C1COC(C)=O (stereo partly specified)
tgt: Follistatin-related protein 3 (Homo sapiens) (UniProt O95633)
composite z-score: -0.925

compound: NCCCCCCNC(=O)[C@@H]1C[C@@H]2C(=O)N3CCC[C@H]3C(=O)N2[C@@H]1c1cccc(OCCO)c1
tgt: Follistatin-related protein 3 (Homo sapiens) (UniProt O95633)
composite z-score: 1.04

compound: COC(=O)[C@@]1(Cc2ccc(F)cc2)[C@H]2c3cc(C(=O)N4CCCC4)n(Cc4cc(F)cc5c4OCOC5)c3C[C@H]2CN1C(=O)c1ccccc1
tgt: Follistatin-related protein 3 (Homo sapiens) (UniProt O95633)
composite z-score: 1.3

compound: COc1ccc([Si](C)(C)[C@H]2[C@H](CCO)O[C@@]3(C(=O)N(Cc4ccc(NC(=O)[C@H](C)O)cc4)c4ccccc43)[C@@H]2C)cc1
tgt: Follistatin-related protein 3 (Homo sapiens) (UniProt O95633)
composite z-score: 0.0961

Your task in this section: give composite z-score for each listed record.
1. O=C1O[C@H](c2ccccc2)[C@H](c2ccccc2)N2[C@H]1[C@@H](C(=O)O)[C@]1(C(=O)Nc3ccc(C#CCCO)cc31)[C@H]2c1ccc(OCCO)cc1
2. C=CCOC(=O)[C@@H]1[C@H]2C(=O)O[C@H](c3ccccc3)[C@H](c3ccccc3)N2[C@H](c2ccc(OCCOC(=O)[C@H]3C[C@H]4C(=O)N5CCC[C@H]5C(=O)N4[C@H]3c3cccc(OCCO)c3)cc2)[C@@]12C(=O)Nc1ccc(I)cc12

output:
[0.446, 1.42]

----------
For each of the compounds below, state its z-score.
test: optical density shifts of acrAB sulA E. coli – strain DRC41, OD650, 48 h, E. coli filamentation inducer project, primary screen (AID 1152); settings: higher = more signal, called active from +8 up or from −8 down;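 further: E. coli MC1000 strain DRC41 lacking acrAB efflux pump and sulA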
Numbers only.

compound: CN(C)c1ccc(C(O)C2C=CC3C(=O)N(Cc4ccccc4)C(=O)C3N2n2cnnc2)cc1 (stereo not given)
reported_endpoint: z-score
value_observed: 1.3
--
compound: CCCC[C@H]1C[C@@H]1[C@@H]1N(C(C)=O)[C@H](c2cccc(OC)c2)CC12CC2
reported_endpoint: z-score
value_observed: -1.17
--
compound: C=C(CCCC)/C(=C/C[C@H](OC(=O)c1ccncc1)c1cccc(OCCO)c1)c1cnc2ccccc2c1
reported_endpoint: z-score
value_observed: -0.639
--
compound: COC(=O)[C@@]1(Cc2ccc(OC)cc2)[C@H]2c3cc(C(=O)N(C)C)[nH]c3C[C@H]2CN1C(=O)c1ccccc1
reported_endpoint: z-score
value_observed: -0.439
--
compound: C=C(C)[C@@H]1CC=C(C(O)C2C=CC3C(=O)N(C)C(=O)C3N2Nc2ccc([N+](=O)[O-])cc2[N+](=O)[O-])CC1 (stereo not given in full)
reported_endpoint: z-score
value_observed: -1.03

Your task in this section: give z-score for each listed record.
1. COc1ccc(C(=O)Nc2cccc(CN3C(=O)[C@]4(O[C@H](CC(=O)N5Cc6ccccc6C[C@H]5CO)[C@@H]([Si](C)(C)c5ccc(OC)cc5)[C@@H]4C)c4ccccc43)c2)cc1
2. CN1C(=O)[C@@H]2[C@@H](CC(COc3ccccc3)=C3[C@@H](CCc4ccccc4)OB(O)C[C@@H]32)C1=O
3. CCOC(=O)C[C@H]1[C@H](OC(=O)c2ccccc2-c2ccccc2)[C@@H](NC(=O)C2CCCCC2)c2cc(OCCCO)ccc2N1C(=O)c1ccc2ccccc2n1

output:
1: 1.66; 2: -0.759; 3: -0.899

Your task in this section: give z-score for each listed record.
1. [N-]=[N+]=NCc1ccccc1[C@@H]1OC(c2ccc(OCCCO)cc2)=N[C@]1(Cc1ccccc1N=[N+]=[N-])C(=O)O
2. COCCCNC(=O)[C@@]1(Sc2ccc(C)cc2)CC(=O)N(Cc2ccccc2C(F)(F)F)[C@@H]1c1ccc(CO)cc1I
3. CN(C)C(=O)[C@]1(Cc2ccccc2)N=C(c2ccc(OCCCO)cc2)O[C@@H]1c1ccccc1CN=[N+]=[N-]
4. COc1ccc(C(=O)Nc2cccc(CN3C(=O)[C@@]4(O[C@@H](CC(=O)N5CCC[C@H]5CO)[C@H]([Si](C)(C)c5ccc(OC)cc5)[C@H]4C)c4ccccc43)c2)cc1
5. COC(=O)[C@@]1(Cc2ccc(F)cc2)[C@H]2c3cc(C(=O)N(C)C)n(C)c3C[C@H]2CN1C(=O)c1ccccc1
6. C=CCOC(=O)[C@@H]1[C@H]2C(=O)O[C@H](c3ccccc3)[C@H](c3ccccc3)N2[C@H](c2ccc(OCCOC(=O)[C@H]3C[C@H]4C(=O)N[C@@H](CCCCN(C)C)C(=O)N4[C@H]3c3ccc(O)cc3)cc2)[C@@]12C(=O)Nc1ccc(I)cc12
7. CC(C)NC(=O)[C@@]1(C)c2ccccc2C(=O)N(Cc2ccccc2)[C@H]1c1ccc(CO)cc1

output:
[0.0786, 0.0516, 0.631, -0.184, -1.18, -1.09, 1.31]

Your task in this section: give z-score for each listed record.
1. CCCCC(O)C1C=CC2C(=O)N(c3ccccc3)C(=O)C2N1Nc1ccccc1 (stereo not given)
2. CC1CC/C=C\[C@H]2OC34C=CCN(Cc5ccccc5)C(=O)[C@H]3N(CCCCCCO)C(=O)[C@@H]4C2C(=O)O1 (stereo not given in full)

output:
[-0.274, 0.528]

Your task in this section: give z-score for each listed record.
1. CN1C(=O)C2C(C3CC3)C=C3CN(Cc4cccc(Cl)c4)[C@@H]([C@@H](O)Cc4ccccc4)C3C2C1=O (stereo not given in full)
2. C[C@]1(C(=O)O)c2ccccc2C(=O)N(Cc2cc(F)cc(C(F)(F)F)c2)[C@H]1c1ccc(CO)cc1
3. C=C1C(=O)C=C2CN(C(=O)c3ccccc3)[C@@](Cc3ccc(OC)cc3)(C(=O)OC)[C@@H]12
4. COc1ccc(C(=O)Nc2ccc3c(c2)[C@@]2(O[C@H](CCO)[C@@H]([Si](C)(C)c4ccc(OC)cc4)[C@@H]2C)C(=O)N3Cc2ccccc2)cc1
5. CC(C)c1nc2cc(Br)ccc2c(=O)o1
6. CC(C)C(O)C1C=CC2C(=O)NC(=O)C2N1Nc1ccccn1 (stereo not given)
7. CC(C)=CCCC(C)=CC(O)C1C=CC2C(=O)NC(=O)C2N1Nc1ccccn1 (stereo not given)
8. N#Cc1ccc(C(O)C2C=CC3C(=O)NC(=O)C3N2Nc2ccc(Cl)cc2Cl)cc1 (stereo not given)

output:
[1.14, -0.169, -1.79, -0.134, 0.537, -0.668, -0.255, -1.18]

Your task in this section: give z-score for each listed record.
1. CCC(CC)C(O)C1C=CC2C(=O)N(c3ccccc3)C(=O)C2N1Nc1ccccc1F (stereo not given)
2. CC(C)(C)N1CC=CC23O[C@@H]4C=CCCOC(=O)C4[C@H]2C(=O)N(CCCCCCO)[C@@H]3C1=O (stereo not given in full)
3. CCCc1cc2c(n1CCc1ccc(Cl)cc1)C(C)C1CN(C(=O)c3ccccc3)C(C)(C(=O)OC)C21 (stereo not given)
4. CCCCCCc1nc(-c2ccc(-c3ccc(Cl)c(Cl)c3)o2)cc2c1[Si](C(C)C)(C(C)C)OC2
5. C=CCC(OC(C)=O)[C@@H]1[C@@H](N(Cc2ccc(-c3cccc(C(F)(F)F)c3)o2)C(=O)Cc2ccc(F)cc2)c2cc(OCCCO)ccc2N1C(=O)Cc1ccc2ccccc2c1 (stereo not given in full)

output:
1: -0.372; 2: 0.0094; 3: -2.41; 4: 0.615; 5: -0.985
